Value source: ChEMBL document CHEMBL6114934

test system: Staphylococcus aureus; test: Antibacterial activity against methicillin-resistant Staphylococcus aureus by broth microdilution method; format: functional
parameter_measured: MIC (µg/mL)
Write the value in µg/mL as a bare number.

Return value of MIC for input CCOc1ccc(/C=C/C(=O)c2ccc(O)c(OC)c2)cc1 , no commentary.
32

Quickly give me recorded MIC for COc1cc(C(=O)/C=C/c2ccc(F)cc2)cc([N+](=O)[O-])c1O
64

# return recorded MIC for entry COc1cc(C(=O)/C=C/c2cccc(F)c2)cc([N+](=O)[O-])c1O
64

Tell me its MIC given COc1cc(C(=O)/C=C/c2ccc(Cl)cc2)cc([N+](=O)[O-])c1O as the entry.
32

Tell us which MIC value is on record for COc1cc(C(=O)/C=C/c2cccc(C(F)(F)F)c2)cc([N+](=O)[O-])c1O
64

* * *

tested on: Staphylococcus aureus; experiment: Antibacterial activity against Staphylococcus aureus at 256 ug/ml by broth microdilution method; format: functional, organism-based; settings: dose 256.0 µg/ml
The source made the active and inactive calls. No cut-off for these calls is given here.
parameter_measured: Activity

>>> result("COc1cc(C(=O)/C=C/c2cccc(C(F)(F)F)c2)ccc1O")
"inactive"
>>> result("COc1cc(C(=O)/C=C/c2ccc(Cl)cc2Cl)ccc1O")
"inactive"

* * *

Consider the following molecules; for each one, report its MIC.
test system: Staphylococcus aureus; test: Antibacterial activity against methicillin-resistant Staphylococcus aureus by broth microdilution method; format: functional
Report only the number, with the unit µg/mL understood.

Find the measured MIC of COc1cc(C(=O)/C=C/c2ccc(Cl)c(Cl)c2)cc([N+](=O)[O-])c1O and report it.
8

Output measured MIC for this item: COc1cc(C(=O)/C=C/c2ccc(Cl)cc2Cl)cc([N+](=O)[O-])c1O
256

Specify reported MIC for the molecule shown: COc1cc(C(=O)/C=C/c2ccc([N+](=O)[O-])cc2)cc([N+](=O)[O-])c1O
64

Give MIC for COc1cc(C(=O)/C=C/c2cccc(Cl)c2)cc([N+](=O)[O-])c1O
64
